Record form. Attribute: koff. Fill in for each entry.
- Assay system: T1, recombinant human ASM protein (human, UniProt P17405 47-630)
- T1 construct: Recombinant human ASM in solution; also called acid sphingomyelinase (ASM) protein
- T1 sequence: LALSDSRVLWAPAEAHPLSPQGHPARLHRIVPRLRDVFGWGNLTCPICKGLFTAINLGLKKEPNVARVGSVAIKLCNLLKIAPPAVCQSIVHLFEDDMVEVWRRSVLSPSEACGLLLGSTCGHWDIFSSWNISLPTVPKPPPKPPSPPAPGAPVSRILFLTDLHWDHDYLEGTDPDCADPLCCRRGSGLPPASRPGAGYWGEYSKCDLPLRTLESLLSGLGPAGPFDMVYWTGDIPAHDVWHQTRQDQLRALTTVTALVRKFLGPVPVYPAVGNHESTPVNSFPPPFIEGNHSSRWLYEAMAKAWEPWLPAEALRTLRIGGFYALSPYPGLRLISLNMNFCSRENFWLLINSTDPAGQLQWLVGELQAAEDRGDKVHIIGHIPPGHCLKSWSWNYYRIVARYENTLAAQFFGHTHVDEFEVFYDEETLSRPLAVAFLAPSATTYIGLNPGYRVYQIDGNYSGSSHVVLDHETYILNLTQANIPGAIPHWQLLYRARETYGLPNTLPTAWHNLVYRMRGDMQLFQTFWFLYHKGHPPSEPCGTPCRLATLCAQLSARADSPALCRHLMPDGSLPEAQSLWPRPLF
- Protocol notes: BLI (Octet), antibody on AHC sensor
Kindly write the number and append the unit.

Hi team, please reply with koff for each item in this list.
1. #9104a-D4 (antibody, human IgG4 S228P, lambda, V domains shown, VH of #9104v-H17 with VL of #9104v-L64; full-length IgG, lambda) VH: EVQLLESGGGLVQPGGSLRLSCAASGFTFSNYYMSWVRRAPGKGLEWVSGIYYGSGTPYYAASVKGRFTISRDNSKNTLYLQMNSLRAEDTAVYYCARDTPGFDYWGQGTLVTVSS VL: QSVLTQPPSASGTPGQRVTISCTGSSSNIGNNAVNWYQQLPGTAPKLLIYYDYFSHSGVPDRFSGSKSGTSASLAISGLRSEDEADYYCGAWDYSLSAYVFGGGTKLTVLG
2. #9104a-B4 (antibody, human IgG4 S228P, lambda, V domains shown, VH of #9104v-H17 with VL of #9104v-L21; full-length IgG, lambda) VH: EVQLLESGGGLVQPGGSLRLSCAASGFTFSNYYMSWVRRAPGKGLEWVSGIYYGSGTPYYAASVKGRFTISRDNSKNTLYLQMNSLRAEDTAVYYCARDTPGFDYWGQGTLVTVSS VL: QSVLTQPPSASGTPGQRVTISCTGSSSNIGNNAVNWYQQLPGTAPKLLIYYDMFRPNGVPDRFSGSKSGTSASLAISGLRSEDEADYYCGAWDYSLSAYVFGGGTKLTVLG
3. #9104a-B2 (antibody, human IgG4 S228P, lambda, V domains shown, VH of #9104v-H11 with VL of #9104v-L21; full-length IgG, lambda) VH: EVQLLESGGGLVQPGGSLRLSCAASGFTFSNYYMSWVRQAPGKGLEWVSGIYYGSGIPYYADSVKERFTISRDNSKNTLYLQMNSLRAEDTAVYYCARDTPGFDYWGQGTLVTVSS VL: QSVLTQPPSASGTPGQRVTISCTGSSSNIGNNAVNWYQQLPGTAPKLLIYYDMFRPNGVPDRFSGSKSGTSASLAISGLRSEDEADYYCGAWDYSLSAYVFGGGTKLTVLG
4. #9104a-D5 (antibody, human IgG4 S228P, lambda, V domains shown, VH of #9104v-H19 with VL of #9104v-L64; full-length IgG, lambda) VH: EVQLLESGGGLVQPGGSLRLSCAASGFTFSNYYMSWVRQAPGKGLEWVSGIYYGSGVPYYADSVKGRFTISRDNSKNTLYLQMNSLRAEDTAVYYCARDTPGFDYWGQGTLVTVSS VL: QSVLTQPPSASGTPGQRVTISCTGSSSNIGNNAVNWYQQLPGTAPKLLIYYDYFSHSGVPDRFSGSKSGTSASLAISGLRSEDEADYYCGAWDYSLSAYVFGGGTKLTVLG
5. #9104a-A2 (antibody, human IgG4 S228P, lambda, V domains shown, VH of #9104v-H11 with VL of #9104v-L20; full-length IgG, lambda) VH: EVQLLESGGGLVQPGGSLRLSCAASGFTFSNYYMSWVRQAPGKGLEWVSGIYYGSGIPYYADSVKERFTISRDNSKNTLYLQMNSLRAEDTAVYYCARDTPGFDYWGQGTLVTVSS VL: QSVLTQPPSASGTPGQRVTISCTGSSSNIGNNAVNWYQQLPGTAPKLLIYYDMFRPGGVPDRFSGSKSGTSASLAISGLRSEDEADYYCGAWDYSLSAYVFGGGTKLTVLG

stdout:
1: 5.09e-05 s⁻¹; 2: 3.74e-05 s⁻¹; 3: 3.03e-05 s⁻¹; 4: 3.39e-05 s⁻¹; 5: 1.98e-05 s⁻¹
